Taken from patent US20210040232A1.

system_under_test: T1, soluble Macaca fascicularis CTLA-4 expressed with a C-terminal myc-myc-polyhistidine tag (Macaca fascicularis)
T1 construct: soluble protein; also called mf CTLA-4.mmh; mfCTLA4.mmh
T1 chain: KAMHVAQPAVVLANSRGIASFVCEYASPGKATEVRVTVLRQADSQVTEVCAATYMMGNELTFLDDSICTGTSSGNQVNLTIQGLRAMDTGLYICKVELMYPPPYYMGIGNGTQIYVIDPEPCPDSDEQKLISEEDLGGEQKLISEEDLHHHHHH
assay_comment: SPR, mAb capture, 25 C
quantity: t1/2

>  <binder>
H1H19303P (antibody, human IgG1, kappa, V domains shown, also called REGN4659) VH: EVQLVESGGGLVQPGGSLRLSCAASGFTFSNYEMSWVRQAPGKGLEWVSSIRTSGTTKYYADSMKGRFTISRDNAKNSLYLQMNSLRAEDTAVYYCAGGGTFLHYWGQGTLVTVSS VL: DIQMTQSPSSVSASVGDRVTITCRASQGIASYLAWYQQKPGKAPKLLIYAASSLQTGVPSRFSGSGYGTDFTLTISSLQPEDFATYYCQQAKSFPMYTFGQGTKLEIKR

>  <t1/2>
4.7 min

$$$$

Next, consider the following binder.
Given the binder H1H19278P (antibody, human IgG1, V domains shown) VH: QVQLVESGGGVVQPGRSLRLSCAASGFTFSSYGMNWVRQAPGKGLEWVAVTWYDGSNKHYADSVKGRFTISRDNSKNTLYLQMYSLRAEDTAMYYCVRGGHLGAFDIWGQGTMVTVSS VL: EIVLTQSPGTLSLSPGERATLSCRASQSVSSYLAWYQQKPGQAPRLLIYGASSRATGIPDRFSGGGSGTDFTLTISRLEPEDFAVYYCQQYGSSPFTFGPGTKVDIK , what is its reported t1/2? 11.4 min
